Recorded values, source patent US8178506B2.

Test system: HeLa cells
Experiment: Cell cycle assay in HeLa cells
Assay type: cell-based, human
Details: HeLa cells, 150 nM oligomeric compound, 48 hours after treatment; relative to untreated control (UTC=100)
In the oligonucleotide strings, read from the 5' end, every base follows the letter of its sugar. An asterisk marks phosphorothioate; unmarked linkages are phosphodiester. Other units and linkages are bracketed, terminal groups are in braces. A string of capitals states the bases alone. e = 2'-O-(2-methoxyethyl) (MOE); [5mC] = 5-methylcytosine; d = 2'-deoxy (DNA)
Measured % cells in cell cycle phase: S values are reported for all entries that follow.
value.kind: % cells in cell cycle phase: S (%)

| substance | value.reported |
| --- | --- |
| 328397 (antisense eT*eT*eG*eA*eT*d[5mC]*d[5mC]*dA*dT*dA*dT*dG*d[5mC]*dA*dA*e[5mC]*eA*eA*eG*eG) [compound 328397] | 101 |
| 328674 (eT*eG*e[5mC]*e[5mC]*e[5mC]*dT*dG*d[5mC]*dT*d[5mC]*dA*dG*dA*dG*d[5mC]*e[5mC]*e[5mC]*eT*eA*eG; antisense) [compound 328674] | 160 |
| 327878 (antisense e[5mC]*eT*eA*eG*eT*eG*eG*eT*e[5mC]*e[5mC]*eT*eA*eA*eA*e[5mC]*eA*eT*eT*eT*e[5mC]*eA*e[5mC]) [compound 327878] | 119 |
| 328115 (antisense eA*eG*eA*eA*eG*eG*eT*eG*eG*eG*eG*eA*eG*e[5mC]*eA*eG*e[5mC]*eG*eT*e[5mC]*eA) [compound 328115] | 114 |
| 328727 (antisense e[5mC]*eT*eG*e[5mC]*eT*d[5mC]*d[5mC]*dA*dG*dA*dG*d[5mC]*d[5mC]*d[5mC]*dG*eA*eG*eT*e[5mC]*eG) [compound 328727] | 152 |
| 327908 (antisense e[5mC]*eA*eA*eT*eG*e[5mC]*eA*eA*e[5mC]*eT*eA*e[5mC]*eA*eA*eT*eG*e[5mC]*eA*e[5mC]) [compound 327908] | 98 |
| 327896 (antisense eA*e[5mC]*eA*eG*eT*eT*e[5mC]*eT*eT*e[5mC]*eA*eA*e[5mC]*eT*eG*eG*e[5mC]*eA*eG*e[5mC]*eT*eT) [compound 327896] | 140 |
| 327906 (antisense eT*e[5mC]*eA*eT*eA*eG*e[5mC]*e[5mC]*e[5mC]*eT*eG*eT*eA*e[5mC]*eA*eA*eT*eG*e[5mC]*eT*eG*e[5mC]*eT) [compound 327906] | 98 |
| 345373 (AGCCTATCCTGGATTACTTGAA; sugars from the 5' end e5 d10 e7, all phosphorothioate, methylation of C not given here) [compound 345373] | 132 |
